The measured values listed here are drawn from paper PMC11897524.

Biological target: STAT5a (Homo sapiens, UniProt P42229)
Sequence (P42229 whole entry): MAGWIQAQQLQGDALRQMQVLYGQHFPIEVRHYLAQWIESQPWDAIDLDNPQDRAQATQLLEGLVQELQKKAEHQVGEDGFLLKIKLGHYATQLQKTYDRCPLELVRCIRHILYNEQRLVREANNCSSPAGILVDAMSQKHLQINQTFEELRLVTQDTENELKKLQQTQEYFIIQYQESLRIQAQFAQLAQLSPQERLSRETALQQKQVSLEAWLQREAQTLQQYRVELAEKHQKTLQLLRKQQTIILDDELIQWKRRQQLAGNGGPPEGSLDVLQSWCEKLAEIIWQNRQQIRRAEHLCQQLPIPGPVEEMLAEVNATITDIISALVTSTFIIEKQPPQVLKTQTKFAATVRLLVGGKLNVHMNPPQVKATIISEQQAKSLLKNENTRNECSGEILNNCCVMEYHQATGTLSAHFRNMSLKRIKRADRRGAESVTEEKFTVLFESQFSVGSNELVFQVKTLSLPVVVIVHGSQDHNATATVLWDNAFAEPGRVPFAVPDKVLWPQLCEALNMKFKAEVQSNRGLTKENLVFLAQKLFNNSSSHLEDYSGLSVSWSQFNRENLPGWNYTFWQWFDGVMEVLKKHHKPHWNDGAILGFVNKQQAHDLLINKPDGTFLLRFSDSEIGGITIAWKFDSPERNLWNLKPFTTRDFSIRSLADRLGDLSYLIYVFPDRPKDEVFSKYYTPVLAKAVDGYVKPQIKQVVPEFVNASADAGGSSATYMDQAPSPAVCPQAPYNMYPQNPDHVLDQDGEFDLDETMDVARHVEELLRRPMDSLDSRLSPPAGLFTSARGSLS
assay readout: IC50

CCS(=O)(=O)Cc1cnc(Oc2c(F)cc(F)cc2OCCCCOc2ccc(/C=C/c3cc(OC)cc(OC)c3)cc2)c(-c2cc(C)c3c(=O)[nH]ccn23)c1 :: > 10 µM

====

Target: FGFR2 (Homo sapiens, UniProt P21802)
Sequence (P21802 22-821): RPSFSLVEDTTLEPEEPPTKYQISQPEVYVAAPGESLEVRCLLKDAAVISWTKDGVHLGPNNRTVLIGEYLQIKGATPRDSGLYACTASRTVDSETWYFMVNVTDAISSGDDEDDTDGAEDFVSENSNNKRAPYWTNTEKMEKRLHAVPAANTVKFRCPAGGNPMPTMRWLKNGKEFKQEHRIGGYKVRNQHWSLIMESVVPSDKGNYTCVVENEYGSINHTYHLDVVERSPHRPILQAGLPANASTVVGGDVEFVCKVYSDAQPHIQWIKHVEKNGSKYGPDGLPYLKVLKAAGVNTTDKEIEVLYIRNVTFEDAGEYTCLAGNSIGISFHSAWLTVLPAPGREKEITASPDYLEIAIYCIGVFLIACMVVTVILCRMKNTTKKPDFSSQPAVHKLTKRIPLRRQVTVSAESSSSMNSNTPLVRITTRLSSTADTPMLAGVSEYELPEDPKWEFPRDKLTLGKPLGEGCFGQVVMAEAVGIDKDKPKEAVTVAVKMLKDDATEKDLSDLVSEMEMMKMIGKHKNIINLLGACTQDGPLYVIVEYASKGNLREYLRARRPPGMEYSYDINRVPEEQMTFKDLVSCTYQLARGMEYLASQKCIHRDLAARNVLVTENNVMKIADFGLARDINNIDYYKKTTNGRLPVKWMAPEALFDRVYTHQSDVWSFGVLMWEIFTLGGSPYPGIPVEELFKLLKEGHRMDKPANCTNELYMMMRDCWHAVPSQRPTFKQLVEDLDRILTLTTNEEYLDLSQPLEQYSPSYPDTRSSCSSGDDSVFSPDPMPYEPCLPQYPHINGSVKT
pIC50: −log10 of the molar value.
assay readout: pIC50

CCS(=O)(=O)Cc1cnc(Oc2c(F)cc(F)cc2OCCCCOc2ccc(/C=C/c3cc(OC)cc(OC)c3)cc2)c(-c2cc(C)c3c(=O)[nH]ccn23)c1 :: < 5.00

====

Molecular target: BRDT (Homo sapiens, UniProt Q58F21)
Experiment: Binding affinity to BET and STAT family members
assay readout: Kd

CCS(=O)(=O)Cc1cnc(Oc2c(F)cc(F)cc2OCCCCOc2ccc(/C=C/c3cc(OC)cc(OC)c3)cc2)c(-c2cc(C)c3c(=O)[nH]ccn23)c1 :: > 10 µM

====

Molecular target: CSF1R (Homo sapiens, UniProt P07333)
Sequence (P07333 20-972): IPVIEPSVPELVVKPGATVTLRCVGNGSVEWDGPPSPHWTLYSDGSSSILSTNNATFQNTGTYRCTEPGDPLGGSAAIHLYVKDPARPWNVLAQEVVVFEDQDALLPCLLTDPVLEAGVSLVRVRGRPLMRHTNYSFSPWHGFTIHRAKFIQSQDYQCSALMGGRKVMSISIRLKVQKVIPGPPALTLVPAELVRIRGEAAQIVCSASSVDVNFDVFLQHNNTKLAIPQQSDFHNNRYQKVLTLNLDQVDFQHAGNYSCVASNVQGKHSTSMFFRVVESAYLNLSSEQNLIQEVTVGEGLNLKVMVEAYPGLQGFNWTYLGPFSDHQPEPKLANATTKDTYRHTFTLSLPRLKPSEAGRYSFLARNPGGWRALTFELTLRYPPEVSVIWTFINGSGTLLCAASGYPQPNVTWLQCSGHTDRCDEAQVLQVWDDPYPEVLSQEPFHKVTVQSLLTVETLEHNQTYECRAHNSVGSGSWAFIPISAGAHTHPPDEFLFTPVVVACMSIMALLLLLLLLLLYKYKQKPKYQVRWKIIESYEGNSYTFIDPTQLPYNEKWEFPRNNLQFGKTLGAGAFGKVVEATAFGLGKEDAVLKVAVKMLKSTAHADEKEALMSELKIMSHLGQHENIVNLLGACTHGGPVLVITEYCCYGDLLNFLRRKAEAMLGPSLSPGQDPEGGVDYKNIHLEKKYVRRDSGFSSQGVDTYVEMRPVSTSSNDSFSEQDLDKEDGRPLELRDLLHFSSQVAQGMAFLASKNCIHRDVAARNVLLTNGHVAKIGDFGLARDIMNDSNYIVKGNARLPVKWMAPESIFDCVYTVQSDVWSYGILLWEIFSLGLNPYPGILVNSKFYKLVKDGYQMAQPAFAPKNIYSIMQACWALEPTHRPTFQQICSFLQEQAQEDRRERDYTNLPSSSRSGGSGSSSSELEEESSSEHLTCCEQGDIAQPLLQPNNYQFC
pIC50: −log10 of the molar value.
assay readout: pIC50

CCS(=O)(=O)Cc1cnc(Oc2c(F)cc(F)cc2OCCCCOc2ccc(/C=C/c3cc(OC)cc(OC)c3)cc2)c(-c2cc(C)c3c(=O)[nH]ccn23)c1 [BST-4] :: < 5.00

====

Target: LCK (Homo sapiens)
Sequence (P06239 whole entry): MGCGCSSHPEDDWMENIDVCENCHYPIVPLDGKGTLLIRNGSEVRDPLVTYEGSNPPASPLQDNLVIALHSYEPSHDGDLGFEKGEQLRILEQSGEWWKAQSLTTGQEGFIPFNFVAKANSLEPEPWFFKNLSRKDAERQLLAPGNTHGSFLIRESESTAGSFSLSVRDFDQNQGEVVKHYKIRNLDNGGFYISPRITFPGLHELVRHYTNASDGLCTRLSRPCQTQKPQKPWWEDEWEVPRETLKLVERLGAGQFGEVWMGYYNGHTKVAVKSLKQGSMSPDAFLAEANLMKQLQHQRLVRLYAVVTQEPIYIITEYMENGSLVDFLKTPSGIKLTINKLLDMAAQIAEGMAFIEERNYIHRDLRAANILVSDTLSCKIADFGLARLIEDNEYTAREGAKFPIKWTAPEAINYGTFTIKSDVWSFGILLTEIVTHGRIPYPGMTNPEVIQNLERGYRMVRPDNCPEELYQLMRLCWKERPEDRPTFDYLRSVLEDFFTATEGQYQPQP
assay readout: IC50

CCS(=O)(=O)Cc1cnc(Oc2c(F)cc(F)cc2OCCCCOc2ccc(/C=C/c3cc(OC)cc(OC)c3)cc2)c(-c2cc(C)c3c(=O)[nH]ccn23)c1 :: > 10 µM

====

Target: JAK1 (Homo sapiens)
Sequence (P23458 whole entry): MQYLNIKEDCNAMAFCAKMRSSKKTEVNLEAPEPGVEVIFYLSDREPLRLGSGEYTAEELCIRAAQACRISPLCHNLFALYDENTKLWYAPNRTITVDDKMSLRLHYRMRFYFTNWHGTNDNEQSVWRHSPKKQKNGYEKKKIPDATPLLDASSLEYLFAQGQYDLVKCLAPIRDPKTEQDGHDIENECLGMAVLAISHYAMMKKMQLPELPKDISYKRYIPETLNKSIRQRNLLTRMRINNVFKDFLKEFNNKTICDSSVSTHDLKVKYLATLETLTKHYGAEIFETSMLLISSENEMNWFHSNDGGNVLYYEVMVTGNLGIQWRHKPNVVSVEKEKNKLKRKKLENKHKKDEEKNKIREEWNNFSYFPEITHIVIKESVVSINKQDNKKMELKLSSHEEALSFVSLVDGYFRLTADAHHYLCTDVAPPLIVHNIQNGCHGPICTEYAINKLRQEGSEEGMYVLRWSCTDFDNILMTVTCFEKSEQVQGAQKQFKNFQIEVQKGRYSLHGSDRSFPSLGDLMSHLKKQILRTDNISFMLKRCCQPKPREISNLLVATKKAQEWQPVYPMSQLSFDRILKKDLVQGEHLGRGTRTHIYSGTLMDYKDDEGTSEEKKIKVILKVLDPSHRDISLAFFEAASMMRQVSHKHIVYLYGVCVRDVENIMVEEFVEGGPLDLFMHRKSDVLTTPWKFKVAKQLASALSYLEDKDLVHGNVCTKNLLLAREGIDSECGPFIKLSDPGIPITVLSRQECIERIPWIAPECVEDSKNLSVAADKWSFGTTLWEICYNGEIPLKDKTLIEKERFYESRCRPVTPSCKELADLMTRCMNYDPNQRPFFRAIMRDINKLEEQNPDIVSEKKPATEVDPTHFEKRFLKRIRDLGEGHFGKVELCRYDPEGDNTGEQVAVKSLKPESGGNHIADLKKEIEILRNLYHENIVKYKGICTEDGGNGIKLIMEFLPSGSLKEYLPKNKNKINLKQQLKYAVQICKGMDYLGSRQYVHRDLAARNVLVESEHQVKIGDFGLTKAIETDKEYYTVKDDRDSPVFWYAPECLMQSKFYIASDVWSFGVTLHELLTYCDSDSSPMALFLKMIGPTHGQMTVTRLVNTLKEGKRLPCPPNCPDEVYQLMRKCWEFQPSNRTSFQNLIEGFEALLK
assay readout: IC50

CCS(=O)(=O)Cc1cnc(Oc2c(F)cc(F)cc2OCCCCOc2ccc(/C=C/c3cc(OC)cc(OC)c3)cc2)c(-c2cc(C)c3c(=O)[nH]ccn23)c1 :: > 10 µM

====

Target: JAK3 (Homo sapiens, UniProt P52333)
Sequence (P52333 1-1124): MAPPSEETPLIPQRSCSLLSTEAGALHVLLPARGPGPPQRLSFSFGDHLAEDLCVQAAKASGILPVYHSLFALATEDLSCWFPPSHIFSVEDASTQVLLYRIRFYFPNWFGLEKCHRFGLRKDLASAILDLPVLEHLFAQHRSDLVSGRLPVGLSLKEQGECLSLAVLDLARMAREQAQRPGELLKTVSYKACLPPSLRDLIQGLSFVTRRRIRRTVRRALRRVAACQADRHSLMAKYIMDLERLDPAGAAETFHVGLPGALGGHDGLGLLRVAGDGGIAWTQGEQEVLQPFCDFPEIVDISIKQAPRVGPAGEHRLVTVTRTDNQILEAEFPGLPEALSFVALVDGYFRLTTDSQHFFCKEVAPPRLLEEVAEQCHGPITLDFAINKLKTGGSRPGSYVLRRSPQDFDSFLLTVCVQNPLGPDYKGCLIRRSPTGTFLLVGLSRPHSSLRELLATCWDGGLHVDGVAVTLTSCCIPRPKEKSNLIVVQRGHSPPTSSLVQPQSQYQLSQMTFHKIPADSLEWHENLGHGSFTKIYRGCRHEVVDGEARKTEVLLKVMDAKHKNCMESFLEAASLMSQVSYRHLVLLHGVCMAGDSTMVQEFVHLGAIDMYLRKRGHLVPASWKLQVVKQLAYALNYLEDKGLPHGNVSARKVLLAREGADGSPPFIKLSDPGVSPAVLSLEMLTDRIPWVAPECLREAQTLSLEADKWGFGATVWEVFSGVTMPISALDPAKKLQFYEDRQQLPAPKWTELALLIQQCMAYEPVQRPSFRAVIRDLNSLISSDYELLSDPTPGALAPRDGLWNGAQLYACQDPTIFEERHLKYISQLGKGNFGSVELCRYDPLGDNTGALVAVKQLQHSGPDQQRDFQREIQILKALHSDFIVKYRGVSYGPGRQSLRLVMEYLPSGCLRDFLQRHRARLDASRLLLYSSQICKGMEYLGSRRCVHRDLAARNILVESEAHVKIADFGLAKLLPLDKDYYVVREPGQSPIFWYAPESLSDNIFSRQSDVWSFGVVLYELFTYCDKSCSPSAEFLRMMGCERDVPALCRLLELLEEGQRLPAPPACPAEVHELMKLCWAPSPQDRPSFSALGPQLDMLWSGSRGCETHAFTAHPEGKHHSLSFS
assay readout: IC50

CCS(=O)(=O)Cc1cnc(Oc2c(F)cc(F)cc2OCCCCOc2ccc(/C=C/c3cc(OC)cc(OC)c3)cc2)c(-c2cc(C)c3c(=O)[nH]ccn23)c1 :: > 10 µM
